target: the molecule itself
method_description: 2D crystallisation on lipid monolayers, negative-stain TEM
readout_name: binding result

AnxA5 single mutant R16E (natural protein, rat) ALRGTVTDFSGFDGEADAEVLRKAMKGLGTDEDSILNLLTARSNAQRQQIAEEFKTLFGRDLVNDMKSELTGKFEKLIVALMKPSRLYDAYELKHALKGAGTDEKVLTEIIASRTPEELRAIKQAYEEEYGSNLEDDVVGDTSGYYQRMLVVLLQANRDPDTAIDDAQVELDAQALFQAGELKWGTDEEKFITILGTRSVSHLRRVFDKYMTISGFQIEETIDRETSGNLENLLLAVVKSIRSIPAYLAETLYYAMKGAGTDDHTLIRVIVSRSEIDLFNIRKEFRKNFATSLYSMIKGDTSGDYKKALLLLCGGEDD	binds
AnxA5 triple mutant R16E/K27E/K56E (natural protein, rat) ALRGTVTDFSGFDGEADAEVLRKAMEGLGTDEDSILNLLTARSNAQRQQIAEEFETLFGRDLVNDMKSELTGKFEKLIVALMKPSRLYDAYELKHALKGAGTDEKVLTEIIASRTPEELRAIKQAYEEEYGSNLEDDVVGDTSGYYQRMLVVLLQANRDPDTAIDDAQVELDAQALFQAGELKWGTDEEKFITILGTRSVSHLRRVFDKYMTISGFQIEETIDRETSGNLENLLLAVVKSIRSIPAYLAETLYYAMKGAGTDDHTLIRVIVSRSEIDLFNIRKEFRKNFATSLYSMIKGDTSGDYKKALLLLCGGEDD	binds
